The following binders are listed with their measured absorbance 490 nm/630 nm values.
Molecular target: full-length recombinant mouse PAD4 (mouse) (UniProt Q9Z183)
Sequence (Q9Z183 whole entry): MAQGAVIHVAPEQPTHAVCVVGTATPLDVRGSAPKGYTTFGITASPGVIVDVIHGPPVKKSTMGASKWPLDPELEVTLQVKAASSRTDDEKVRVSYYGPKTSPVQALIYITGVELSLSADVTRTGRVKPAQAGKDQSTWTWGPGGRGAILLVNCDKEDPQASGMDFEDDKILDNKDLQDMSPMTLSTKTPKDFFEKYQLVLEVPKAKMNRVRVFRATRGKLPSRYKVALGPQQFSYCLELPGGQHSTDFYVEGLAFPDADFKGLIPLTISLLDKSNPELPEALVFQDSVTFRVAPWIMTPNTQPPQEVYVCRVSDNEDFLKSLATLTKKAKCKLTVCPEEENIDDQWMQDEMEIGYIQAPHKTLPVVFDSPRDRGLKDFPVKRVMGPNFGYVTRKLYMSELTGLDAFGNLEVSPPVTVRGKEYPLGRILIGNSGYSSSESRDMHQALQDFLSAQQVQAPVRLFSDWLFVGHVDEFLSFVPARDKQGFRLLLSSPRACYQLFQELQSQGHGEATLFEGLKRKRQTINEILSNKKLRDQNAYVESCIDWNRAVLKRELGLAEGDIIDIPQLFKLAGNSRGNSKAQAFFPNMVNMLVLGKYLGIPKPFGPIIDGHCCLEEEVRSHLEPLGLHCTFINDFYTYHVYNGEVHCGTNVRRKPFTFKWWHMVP
Experiment: ELISA, mouse PAD4 on plate, antibody 0.25 ug/mL
Please state the figure in OD; there is no need to write the unit.

Record excerpt, results attached:
>>> measured_number("A11 (antibody, IgG1, V domains shown) VH: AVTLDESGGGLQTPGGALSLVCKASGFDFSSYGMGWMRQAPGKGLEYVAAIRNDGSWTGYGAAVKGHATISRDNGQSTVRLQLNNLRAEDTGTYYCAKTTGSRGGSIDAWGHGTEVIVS VL: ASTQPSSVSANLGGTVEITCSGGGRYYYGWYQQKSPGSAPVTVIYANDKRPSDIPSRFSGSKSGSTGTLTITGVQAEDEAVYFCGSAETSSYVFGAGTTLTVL")
2.25
>>> measured_number("E9 (antibody, IgG1, V domains shown) VH: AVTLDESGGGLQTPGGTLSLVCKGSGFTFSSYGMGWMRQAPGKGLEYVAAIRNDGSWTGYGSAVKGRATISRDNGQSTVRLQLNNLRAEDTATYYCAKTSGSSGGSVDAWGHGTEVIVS VL: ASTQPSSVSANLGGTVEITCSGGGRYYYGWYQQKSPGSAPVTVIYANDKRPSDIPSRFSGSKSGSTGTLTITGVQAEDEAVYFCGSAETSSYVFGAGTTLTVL")
2.23

Kindly consider the entry below.
**Q:** What value of absorbance 490 nm/630 nm has been reported for the following binder? G9 (antibody, IgG1, V domains shown) VH: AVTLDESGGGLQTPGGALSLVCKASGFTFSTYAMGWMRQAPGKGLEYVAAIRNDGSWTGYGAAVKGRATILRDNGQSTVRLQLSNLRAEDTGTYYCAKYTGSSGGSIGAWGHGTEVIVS VL: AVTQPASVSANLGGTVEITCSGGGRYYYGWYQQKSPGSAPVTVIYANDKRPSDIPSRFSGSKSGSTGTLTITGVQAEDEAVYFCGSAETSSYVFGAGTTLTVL
**A:** 2.25
